Ratio Aβ(total)/Aβ42 by entry:
- Test system: Aβ total
- assay-name: Aβ total cellular assay in H4 neuroglioma cells stably expressing human APP695 (electrochemiluminescence), used for the ratio Aβ total IC50 / Aβ42 IC50
- Format: cell-based
- condition-parameters: higher ratio = more specific inhibition of Aβ42

# compound, limit-qualifier, Ratio Aβ(total)/Aβ42
records = [
    ("CCc1nc(Nc2ccc(-n3cnc(C)c3)c(OC)c2)nc2c1N(C)C(=O)C1CCCN21 (centres unmarked) [Example 6]", "=", 96),
    ("COc1cc(Nc2nc(C(C)C)c3c(n2)N2CCN(C(=O)OC(C)(C)C)CC2C(=O)N3C)ccc1-n1cnc(C)c1 (centres unmarked) [Example 37]", "=", 12),
    ("CCc1nc(Nc2ccc(-n3cnc(C)c3)c(OC)c2)nc2c1N(C)C(=O)C1CCCCN21 (centres unmarked) [Example 36]", "=", 86),
    ("CCc1nc(Nc2ccc(-n3cnc(C)c3)c(OC)c2)nc2c1NC(=O)[C@H]1[C@@H](c3ccc(F)cc3)CCN21 (racemic) [Example 22]", "=", 71),
    ("CCN1C(=O)C2CCCCCN2c2nc(Nc3ccc(-n4cnc(C)n4)c(OC)c3)ncc21 (centres unmarked) [Example 5-3]", "=", 101),
    ("CCc1nc(Nc2ccc(-n3cnc(C)c3)c(OC)c2)nc2c1N(C)C(=O)[C@H]1[C@H](c3ccc(F)cc3)CCN21 (racemic) [Example 23]", "=", 90),
    ("COc1cc(Nc2ncc3c(n2)N2CCCC2C(=O)N3C)ccc1-n1ncnc1C (centres unmarked) [Example 12-4]", ">", 39),
    ("CCc1nc(Nc2ccc(-n3cnc(C)c3)c(OC)c2)nc2c1N(C)C(=O)C1COCCN21 (centres unmarked) [Example 29]", "=", 76),
    ("COc1cc(Nc2ncc3c(n2)N2CCCOCC2C(=O)N3)ccc1-n1cnc(C)c1 (centres unmarked) [Example 30]", "=", 96),
    ("CCN1C(=O)C2CCCCCN2c2nc(Nc3ccc(-n4cnc(C)c4)c(OC)c3)ncc21 (centres unmarked) [Example 1]", "=", 127),
    ("COc1cc(Nc2nc(CC(C)C)c3c(n2)N2C[C@H](OC)C[C@]2(C)C(=O)N3C)ccc1-n1cnc(C)c1 [Example 26]", "=", 253),
    ("Cc1cn(-c2ccc(Nc3ncc4c(n3)N3CCCC3C(=O)N4C)cc2F)cn1 (centres unmarked) [Example 12-3]", ">", 27),
    ("CCc1nc(Nc2ccc(-n3cnc(C)c3)c(OC)c2)nc2c1N(CCOC)C(=O)[C@@H]1C[C@@H](OC)CN21 [Example 19-1]", "=", 131),
    ("COc1cc(Nc2ncc3c(n2)N2CCCCCC2C(=O)N3C)ccc1-n1cnc(C)c1 (centres unmarked) [Example 2]", "=", 59),
    ("COc1cc(Nc2nc(CC(C)C)c3c(n2)N2CCCC2C(=O)N3C)ccc1-n1cnc(C)c1 (centres unmarked) [Example 33]", "=", 171),
    ("CCN1C(=O)C2CCCCCN2c2nc(Nc3ccc(-n4ccnc4)c(OC)c3)ncc21 (centres unmarked) [Example 5-2]", "=", 64),
    ("COc1cc(Nc2ncc3c(n2)N2CCCC2C(=O)N3C)ccc1-n1cnc(C)c1 (centres unmarked) [Example 11]", ">", 310),
]
